Measured Drug uptake by item
Tested on: Spleen
assay details: Biodistribution in ddY mouse spleen at 0.1 to 0.4 uCi, iv after 10 mins by gamma counting
Type: ADME, organism-based
condition summary: in vivo
Numeric only. Scale: % ID/g

# annotated cases, reported Drug uptake shown
| molecule | unit text | quantitative readout |
| --- | --- | --- |
| COc1ccc2nc3cc([125I])ccc3c(OC)c2c1 | % ID/g | 2.12 |
| CNc1c2ccc([125I])cc2nc2ccc(OC)cc12 | % ID/g | 9.14 |
| CCN(CC)CCCC(C)Nc1c2ccc([125I])cc2nc2ccc(OC)cc12 (stereo unspecified) | % ID/g | 9.38 |
| COc1ccc2nc3cc([125I])ccc3c(N)c2c1 | % ID/g | 14.65 |
| COc1c2ccc([125I])cc2nc2ccc(N(C)C)cc12 | % ID/g | 4.07 |

Continue with the next molecule.
[ask] Retrieve Drug uptake measured for COc1ccc2nc3cc([125I])ccc3c(N(C)C)c2c1 and print it.
[reply] 9.65
